Tested on: replicating M. tuberculosis H37Rv
Experiment: microbe, parasite or virus in culture
Assay type: cell-based
Details: Mycobacterium tuberculosis, H37RV, three independent experiments in triplicate, read-out: TB Growth Inhibition Activity, IC90 Replicating_logarithmic (converted)
outcome.measure: IC90 (µM)
Give bare numbers, in µM.

Example results:
# compound, test.target, IC90 / µM
rows = [
    ("COCCSc1nnc(-c2ccccc2)o1 [drawing 148]", "replicating M. tuberculosis H37Rv", 125),
    ("c1ccc(Cn2cc(CSc3nnc(C4CCCC4)o3)nn2)cc1", "replicating M. tuberculosis H37Rv", 62),
]

Alright, here's another compound for you.
// lookup IC90 for "c1ccc(CSc2nnc(-c3ccccc3)s2)cc1"
62
